Taken from the supplement of paper PMC3842684.

- Test system: P. falciparum NF54-pfs16-GFP late (IV-V) stage gametocytes
- assay.name: relative % inhibition of viable gametocyte number; higher = more gametocytocidal
- particulars: 0.5 µM; stage: late (IV-V) gametocyte; incubation 72 h
Could you label it YES if measured relative % inhibition is 30% or higher, and NO otherwise?

compound: CCOc1cc(CNC(C)C(O)c2ccccc2)cc(Cl)c1OCC (stereo not drawn)
tested.target: P. falciparum NF54-pfs16-GFP late (IV-V) stage gametocytes
qualitative.label: YES
//
compound: COc1ccc(CN2CCN(Cc3ccccc3)CC2)c(O)c1
tested.target: P. falciparum NF54-pfs16-GFP late (IV-V) stage gametocytes
qualitative.label: NO
//
compound: Oc1ccc(C(=C(Cl)Cl)c2ccc(O)cc2)cc1
tested.target: P. falciparum NF54-pfs16-GFP late (IV-V) stage gametocytes
qualitative.label: NO
//
compound: CCOc1c(Cl)cc(CNC(C)C(O)c2ccccc2)cc1OC (stereo not drawn)
tested.target: P. falciparum NF54-pfs16-GFP late (IV-V) stage gametocytes
qualitative.label: NO
//
compound: CN(N=O)C1=C(NC2CCCCC2)C(=O)c2ccccc2C1=O
tested.target: P. falciparum NF54-pfs16-GFP late (IV-V) stage gametocytes
qualitative.label: NO

Record C=CC12CCN(CC1)C(C(O)c1ccnc3ccc(OC)cc13)C2 (stereo not drawn) ; criterion: relative % inhibition no lower than 30%. Met? YES

Record Oc1ccc(Br)cc1CN1CCN(Cc2cccc(F)c2)CC1 ; criterion: relative % inhibition no lower than 30%. Met? YES

Record COc1cc(CNCCc2ccc(Cl)cc2)cc(OC)c1O ; criterion: relative % inhibition no lower than 30%. Met? NO
